Hello, the source for this data is ChEMBL document CHEMBL2203148, in case you need it.

# Tested on: Ribosome
# ASSAY_COMMENT: Inhibition of ribosome-mediated translation of PCDH15 R3X nonsense mutant gene expressed in rabbit reticulocytes harboring p2luc plasmid after 16 hrs by dual luciferase reporter gene assay
# Assay type: subcellular
# Parameters: scale not given: the % may be the effect or the level left

SMILES_REPR	EXPERIMENTAL_TARGET	Activity (%)
C[C@H](N)[C@H]1O[C@@H](O[C@@H]2[C@@H](O)[C@H](N)C[C@H](N)[C@H]2O[C@H]2O[C@H]([C@@H](C)O)[C@@H](O)[C@H](O)[C@H]2N)[C@H](O)[C@@H]1O	Ribosome	50
C[C@@H](O)[C@H]1O[C@H](O[C@H]2[C@H](O[C@@H]3O[C@H](CN)[C@@H](O)[C@H]3O)[C@@H](O)[C@H](N)C[C@@H]2N)[C@H](N)[C@@H](O)[C@@H]1O	Ribosome	20
C[C@@H](O)[C@H]1O[C@H](O[C@H]2[C@H](O[C@@H]3O[C@H](CN)[C@@H](O)[C@H]3O)[C@@H](O)[C@H](NC(=O)[C@@H](O)CCN)C[C@@H]2N)[C@H](N)[C@@H](O)[C@@H]1O	Ribosome	50
C[C@@H](N)[C@H]1O[C@@H](O[C@@H]2[C@@H](O)[C@H](N)C[C@H](N)[C@H]2O[C@H]2O[C@H]([C@@H](C)O)[C@@H](O)[C@H](O)[C@H]2N)[C@H](O)[C@@H]1O	Ribosome	20

* * *

# ASSAY_COMMENT: Selectivity ratio of IC50 for ribosome-mediated protein synthesis in rabbit reticulocytes to IC50 for ribosome S30 subunit-mediated protein synthesis in Escherichia coli

SMILES_REPR	Ratio IC50
C[C@@H](N)[C@H]1O[C@@H](O[C@@H]2[C@@H](O)[C@H](N)C[C@H](N)[C@H]2O[C@H]2O[C@H](CO)[C@@H](O)[C@H](O)[C@H]2N)[C@H](O)[C@@H]1O	13
NC[C@H]1O[C@@H](O[C@@H]2[C@@H](O)[C@H](N)C[C@H](N)[C@H]2O[C@H]2O[C@H](CO)[C@@H](O)[C@H](O)[C@H]2N)[C@H](O)[C@@H]1O	68
C[C@@H](N)[C@H]1O[C@@H](O[C@@H]2[C@@H](O)[C@H](N)C[C@H](N)[C@H]2O[C@H]2O[C@H]([C@@H](C)O)[C@@H](O)[C@H](O)[C@H]2N)[C@H](O)[C@@H]1O	4.3
C[C@@H](O)[C@H]1O[C@H](O[C@H]2[C@H](O[C@@H]3O[C@H](CN)[C@@H](O)[C@H]3O)[C@@H](O)[C@H](N)C[C@@H]2N)[C@H](N)[C@@H](O)[C@@H]1O	15
NCC[C@H](O)C(=O)N[C@@H]1C[C@H](N)[C@@H](O[C@H]2O[C@H](CO)[C@@H](O)[C@H](O)[C@H]2N)[C@H](O[C@@H]2O[C@H](CN)[C@@H](O)[C@H]2O)[C@H]1O	151

* * *

# Test system: Ribosome
# ASSAY_COMMENT: Inhibition of ribosome-mediated translation of IDUA Q70X nonsense mutant gene expressed in rabbit reticulocytes harboring p2luc plasmid after 16 hrs by dual luciferase reporter gene assay
# Format: subcellular
# Parameters: scale not given: the % may be the effect or the level left
MEASURED_METRIC: Activity

SMILES_REPR	RESULT
C[C@H](N)[C@H]1O[C@@H](O[C@@H]2[C@@H](O)[C@H](N)C[C@H](N)[C@H]2O[C@H]2O[C@H]([C@@H](C)O)[C@@H](O)[C@H](O)[C@H]2N)[C@H](O)[C@@H]1O	50%

* * *

# ASSAY_COMMENT: Selectivity ratio of IC50 for ribosome-mediated protein synthesis in rabbit reticulocytes to IC50 for ribosome S30 subunit-mediated protein synthesis in Escherichia coli
Structures can show the parent of a compound that is named as a salt.
Collected Ratio IC50 values appear next to each entry.
MEASURED_METRIC: Ratio IC50

COMPOUND	RESULT
C[C@H](N)[C@H]1O[C@@H](O[C@@H]2[C@@H](O)[C@H](N)C[C@H](N)[C@H]2O[C@H]2O[C@H]([C@@H](C)O)[C@@H](O)[C@H](O)[C@H]2N)[C@H](O)[C@@H]1O	1.3
NC[C@@H]1O[C@H](O[C@H]2[C@@H](O)[C@H](O[C@@H]3[C@@H](O)[C@H](N)C[C@H](N)[C@H]3O[C@H]3O[C@H](CO)[C@@H](O)[C@H](O)[C@H]3N)O[C@@H]2CO)[C@H](N)[C@@H](O)[C@@H]1O [PAROMOMYCIN SULFATE]	1120
C[C@@H](O)[C@H]1O[C@H](O[C@H]2[C@H](O[C@@H]3O[C@H](CN)[C@@H](O)[C@H]3O)[C@@H](O)[C@H](NC(=O)[C@@H](O)CCN)C[C@@H]2N)[C@H](N)[C@@H](O)[C@@H]1O	2.9
C[C@@H](N)[C@H]1O[C@@H](O[C@@H]2[C@@H](O)[C@H](NC(=O)[C@@H](O)CCN)C[C@H](N)[C@H]2O[C@H]2O[C@H](CO)[C@@H](O)[C@H](O)[C@H]2N)[C@H](O)[C@@H]1O	5.7

* * *

# Test system: Ribosome
# ASSAY_COMMENT: Inhibition of ribosome-mediated translation of CFTR G542X nonsense mutant gene expressed in rabbit reticulocytes harboring p2luc plasmid after 16 hrs by dual luciferase reporter gene assay
# Type: subcellular
# Parameters: scale not given: the % may be the effect or the level left
Collected Activity values appear next to each entry.

SMILES_REPR	EXPERIMENTAL_TARGET	Activity, %
C[C@@H](O)[C@H]1O[C@H](O[C@H]2[C@H](O[C@@H]3O[C@H](CN)[C@@H](O)[C@H]3O)[C@@H](O)[C@H](NC(=O)[C@@H](O)CCN)C[C@@H]2N)[C@H](N)[C@@H](O)[C@@H]1O	Ribosome	50
C[C@@H](N)[C@H]1O[C@@H](O[C@@H]2[C@@H](O)[C@H](N)C[C@H](N)[C@H]2O[C@H]2O[C@H]([C@@H](C)O)[C@@H](O)[C@H](O)[C@H]2N)[C@H](O)[C@@H]1O	Ribosome	20
C[C@@H](O)[C@H]1O[C@H](O[C@H]2[C@H](O[C@@H]3O[C@H](CN)[C@@H](O)[C@H]3O)[C@@H](O)[C@H](N)C[C@@H]2N)[C@H](N)[C@@H](O)[C@@H]1O	Ribosome	20
C[C@H](N)[C@H]1O[C@@H](O[C@@H]2[C@@H](O)[C@H](N)C[C@H](N)[C@H]2O[C@H]2O[C@H]([C@@H](C)O)[C@@H](O)[C@H](O)[C@H]2N)[C@H](O)[C@@H]1O	Ribosome	50

* * *

# EXPERIMENTAL_TARGET: mitochondrial ribosome (Homo sapiens)
# ASSAY_COMMENT: Inhibition of mitochondrial ribosome-mediated protein synthesis in human HeLa cells assessed as {35S]methionine incorporation by autoradiography
pIC50: −log10 of the molar value.
MEASURED_METRIC: pIC50

SEQUENCE_STRING	MEASURED_METRIC	RESULT
GENTAMICIN SULFATE	pIC50	4.59

* * *

# Tested on: Ribosome
# ASSAY_COMMENT: Inhibition of ribosome-mediated translation of DMD R3381X nonsense mutant gene expressed in rabbit reticulocytes harboring p2luc plasmid after 16 hrs by dual luciferase reporter gene assay
# Type: subcellular
# Design: scale not given: the % may be the effect or the level left

SMILES_REPR	Activity (%)
C[C@@H](O)[C@H]1O[C@H](O[C@H]2[C@H](O[C@@H]3O[C@H](CN)[C@@H](O)[C@H]3O)[C@@H](O)[C@H](NC(=O)[C@@H](O)CCN)C[C@@H]2N)[C@H](N)[C@@H](O)[C@@H]1O	50
C[C@@H](N)[C@H]1O[C@@H](O[C@@H]2[C@@H](O)[C@H](N)C[C@H](N)[C@H]2O[C@H]2O[C@H]([C@@H](C)O)[C@@H](O)[C@H](O)[C@H]2N)[C@H](O)[C@@H]1O	20
C[C@@H](O)[C@H]1O[C@H](O[C@H]2[C@H](O[C@@H]3O[C@H](CN)[C@@H](O)[C@H]3O)[C@@H](O)[C@H](N)C[C@@H]2N)[C@H](N)[C@@H](O)[C@@H]1O	20
C[C@H](N)[C@H]1O[C@@H](O[C@@H]2[C@@H](O)[C@H](N)C[C@H](N)[C@H]2O[C@H]2O[C@H]([C@@H](C)O)[C@@H](O)[C@H](O)[C@H]2N)[C@H](O)[C@@H]1O	50

* * *

# Test system: Ribosome
# ASSAY_COMMENT: Inhibition of ribosome-mediated translation of CFTR W1282X nonsense mutant gene expressed in rabbit reticulocytes harboring p2luc plasmid after 16 hrs by dual luciferase reporter gene assay
# Assay type: subcellular
# Design: scale not given: the % may be the effect or the level left
Collected Activity values appear next to each entry.
MEASURED_METRIC: Activity (%)

SMILES_REPR	EXPERIMENTAL_TARGET	MEASURED_METRIC	RESULT
C[C@@H](N)[C@H]1O[C@@H](O[C@@H]2[C@@H](O)[C@H](N)C[C@H](N)[C@H]2O[C@H]2O[C@H]([C@@H](C)O)[C@@H](O)[C@H](O)[C@H]2N)[C@H](O)[C@@H]1O	Ribosome	Activity	20
C[C@@H](O)[C@H]1O[C@H](O[C@H]2[C@H](O[C@@H]3O[C@H](CN)[C@@H](O)[C@H]3O)[C@@H](O)[C@H](NC(=O)[C@@H](O)CCN)C[C@@H]2N)[C@H](N)[C@@H](O)[C@@H]1O	Ribosome	Activity	50
C[C@@H](O)[C@H]1O[C@H](O[C@H]2[C@H](O[C@@H]3O[C@H](CN)[C@@H](O)[C@H]3O)[C@@H](O)[C@H](N)C[C@@H]2N)[C@H](N)[C@@H](O)[C@@H]1O	Ribosome	Activity	20
C[C@H](N)[C@H]1O[C@@H](O[C@@H]2[C@@H](O)[C@H](N)C[C@H](N)[C@H]2O[C@H]2O[C@H]([C@@H](C)O)[C@@H](O)[C@H](O)[C@H]2N)[C@H](O)[C@@H]1O	Ribosome	Activity	50
